- test details: mRNA encapsulation by fluorescence of Qubit RNA HS dye before and after lysis with Triton X-100
- Format: physicochemical
- cond: percentage of mRNA encapsulation; Fluc mRNA/peptoid formulation, 5:1 mass ratio
So basically, if % Encapsulation comes in under 90% it's Y, and if it's 90% or more it's N.

[[record]]
compound = "CCCCCCCCCCN(CC(N)=O)C(=O)CN(CCCCCCCCCC)C(=O)CN(CCc1ccccc1)C(=O)CN(CCc1ccccc1)C(=O)CN(CC1CCNCC1)C(=O)CN(CCc1ccccc1)C(=O)CN(CCc1ccccc1)C(=O)CN(CC1CCNCC1)C(=O)CN(CCc1ccccc1)C(=O)CN(CCc1ccccc1)C(=O)CNCC1CCNCC1"
qualitative_label = "Y"

[[record]]
compound = "CCCCCCCCCCN(CC(N)=O)C(=O)CN(CCCCCCCCCC)C(=O)CN(CCCCCCCCCC)C(=O)CN(CCCCCCCCCC)C(=O)CN(CCCCCCCCCC)C(=O)CN(CCCCCCCCCC)C(=O)CN(CCc1ccccc1)C(=O)CN(CCc1ccccc1)C(=O)CN(CCN)C(=O)CN(CCc1ccccc1)C(=O)CN(CCc1ccccc1)C(=O)CN(CCN)C(=O)CN(CCc1ccccc1)C(=O)CN(CCc1ccccc1)C(=O)CNCCN"
qualitative_label = "Y"

[[record]]
compound = "CCCCCCCCCCN(CC(N)=O)C(=O)CN(CCCCCCCCCC)C(=O)CN(CCCCCCCCCC)C(=O)CN(CCCCCCCCCC)C(=O)CN(CCc1ccccc1)C(=O)CN(CCc1ccccc1)C(=O)CN(CC1CCNCC1)C(=O)CN(CCc1ccccc1)C(=O)CN(CCc1ccccc1)C(=O)CN(CC1CCNCC1)C(=O)CN(CCc1ccccc1)C(=O)CN(CCc1ccccc1)C(=O)CNCC1CCNCC1"
qualitative_label = "Y"

[[record]]
compound = "CCCCCCCCCCN(CC(N)=O)C(=O)CN(CCCCCCCCCC)C(=O)CN(CCN)C(=O)CN(CCN)C(=O)CN(CCN)C(=O)CN(CCN)C(=O)CN(CCN)C(=O)CN(CCN)C(=O)CN(CCN)C(=O)CN(CCN)C(=O)CNCCN"
qualitative_label = "Y"

[[record]]
compound = "CCCCCCCCCCN(CC(N)=O)C(=O)CN(CCCCCCCCCC)C(=O)CN(CCCCCCCCCC)C(=O)CN(CCCCCCCCCC)C(=O)CN(CCCCCCCCCC)C(=O)CN(CCc1ccccc1)C(=O)CN(CCc1ccccc1)C(=O)CN(CCN)C(=O)CN(CCc1ccccc1)C(=O)CN(CCc1ccccc1)C(=O)CNCCN"
qualitative_label = "Y"

[[record]]
compound = "CCCCCCCCCCCCN(CC(N)=O)C(=O)CN(CCCCCCCCCCCC)C(=O)CN(CCc1ccccc1)C(=O)CN(CCc1ccccc1)C(=O)CN(CCN)C(=O)CN(CCc1ccccc1)C(=O)CN(CCc1ccccc1)C(=O)CN(CCN)C(=O)CN(CCc1ccccc1)C(=O)CN(CCc1ccccc1)C(=O)CNCCN"
qualitative_label = "N"

